The values you see were collected from patent US20230113037A1.

Target: UniProtKB P30561
Sequence (P30561 1-848 P471L/N533S/M589L): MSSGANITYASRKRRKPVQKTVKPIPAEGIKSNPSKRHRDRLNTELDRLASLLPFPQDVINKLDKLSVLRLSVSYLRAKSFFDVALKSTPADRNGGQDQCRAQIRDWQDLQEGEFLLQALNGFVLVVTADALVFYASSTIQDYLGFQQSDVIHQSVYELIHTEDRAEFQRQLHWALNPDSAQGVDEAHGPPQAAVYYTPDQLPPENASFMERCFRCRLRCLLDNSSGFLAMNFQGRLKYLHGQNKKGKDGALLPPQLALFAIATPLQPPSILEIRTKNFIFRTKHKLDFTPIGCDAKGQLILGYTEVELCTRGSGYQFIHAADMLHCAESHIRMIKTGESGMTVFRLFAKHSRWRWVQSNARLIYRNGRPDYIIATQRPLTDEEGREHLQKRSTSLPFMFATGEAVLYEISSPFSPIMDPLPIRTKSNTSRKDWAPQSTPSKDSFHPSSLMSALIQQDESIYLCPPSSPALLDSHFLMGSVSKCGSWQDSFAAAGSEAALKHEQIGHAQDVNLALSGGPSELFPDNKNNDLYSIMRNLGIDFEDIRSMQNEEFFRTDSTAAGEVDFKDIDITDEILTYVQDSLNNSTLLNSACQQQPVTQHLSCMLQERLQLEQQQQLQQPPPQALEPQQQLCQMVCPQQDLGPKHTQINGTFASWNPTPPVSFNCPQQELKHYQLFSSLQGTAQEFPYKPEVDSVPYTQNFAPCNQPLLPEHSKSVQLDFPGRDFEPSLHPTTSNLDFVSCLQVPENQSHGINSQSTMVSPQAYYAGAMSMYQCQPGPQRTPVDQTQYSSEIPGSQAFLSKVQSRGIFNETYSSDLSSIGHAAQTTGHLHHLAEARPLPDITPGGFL
Test: In vitro assay 3: antagonism in mouse cell line (AHR transactivation, firefly luciferase reporter, kynurenic acid prestimulated)
Assay type: cell-based
Conditions: mouse Hepa 1c1c7 cells, 200 μM kynurenic acid, 20 hours, read-out: AHR Antagonism Mouse IC50
Rule: measured IC50 below 10 nM gets yes (1); anything equal to or greater than 10 nM gets no (0).

compound | class label
COc1ccc(-c2nc3c4cccc(C5(C(F)(F)F)CC5)c4nc(N[C@@H]4CCCCNC4=O)n3n2)cc1 | no (0)
COc1cccc(-c2nc3c4ccccc4nc(NC4CCNC4=O)n3n2)c1 (single isomer, unassigned) [Example 120] | no (0)
O=C1NCCCC1Nc1nc2ccccc2c2nc(-c3cccc(F)c3)nn12 (centres unmarked) | no (0)
O=C1NCCCC[C@@H]1Nc1nc2ccccc2c2nc(-c3ccccc3OC(F)(F)F)nn12 | no (0)
COc1cccc(-c2nc3c4ccccc4nc(NC4CCCNC4=O)n3n2)c1 (centres unmarked) [Example 77] | no (0)
CSc1ccccc1-c1nc2c3ccccc3nc(N[C@@H]3CCCCNC3=O)n2n1 | yes (1)
O=C1NCC[C@H]1Nc1nc2ccccc2c2nc(-c3ccc(OC(F)(F)F)cc3)nn12 | yes (1)
CC[C@H](Nc1nc2ccccc2c2nc(-c3ccc(Cl)cc3OC(F)(F)F)nn12)C(N)=O | no (0)
N#Cc1ccc(-c2nc3c4ccccc4nc(N[C@@H]4CCCCNC4=O)n3n2)cc1 | yes (1)
COc1cccc(-c2nc3c4ccccc4nc(N[C@@H](Cc4ccc(O)cc4)C(N)=O)n3n2)c1 | no (0)
COc1cccc(-c2nc3c4ccccc4nc(N[C@@H](CCCCNC(=O)OC(C)(C)C)C(N)=O)n3n2)c1 | no (0)
COc1cccc(-c2nc3c4cc(C)ccc4nc(N[C@H]4CCCCNC4=O)n3n2)c1 | no (0)
CC[C@@H](Nc1nc2ccccc2c2nc(-c3ccccc3)nn12)C(N)=O | yes (1)
Cc1[nH]ncc1-c1nc2c3ccccc3nc(N[C@@H]3CCCCNC3=O)n2n1 | no (0)
Cn1cc(-c2nc3c4cccc(Br)c4nc(N[C@@H]4CNCCNC4=O)n3n2)cn1 | no (0)
COc1ccc(-c2nc3c4cc(OC)ccc4nc(N[C@@H]4CNCCNC4=O)n3n2)cc1 | no (0)
O=C1NCCCC[C@H]1Nc1nc2ccccc2c2nc(-c3ccc(Br)cc3OC(F)(F)F)nn12 | yes (1)
Cn1cc(-c2nc3c4ccccc4nc(NC4CCCNC4=O)n3n2)cn1 (single isomer, unassigned) [Example 20] | no (0)
Cc1cc(-c2nc3c4ccccc4nc(N[C@@H]4CCCCNC4=O)n3n2)c(C)n1C | yes (1)
Cn1cc(-c2nc3c4ccccc4nc(NC4CCNC4=O)n3n2)cn1 (centres unmarked) [Example 15] | no (0)
CCc1nn(C2CC2)cc1-c1nc2c3cccc(C(F)(F)F)c3nc(N[C@@H]3CCCCNC3=O)n2n1 | yes (1)
CCCNC(=O)[C@@H](C)Nc1nc2ccccc2c2nc(-c3cccc(OC(F)(F)F)c3)nn12 | no (0)
COc1cccc(-c2nc3c4cc(F)ccc4nc(NC4CCNC4=O)n3n2)c1 (single isomer, unassigned) [Example 186] | no (0)
